# SYSTEM NAME: Kallikrein-7 (Mus musculus) (UniProt Q91VE3)
# Sequence (Q91VE3 whole entry): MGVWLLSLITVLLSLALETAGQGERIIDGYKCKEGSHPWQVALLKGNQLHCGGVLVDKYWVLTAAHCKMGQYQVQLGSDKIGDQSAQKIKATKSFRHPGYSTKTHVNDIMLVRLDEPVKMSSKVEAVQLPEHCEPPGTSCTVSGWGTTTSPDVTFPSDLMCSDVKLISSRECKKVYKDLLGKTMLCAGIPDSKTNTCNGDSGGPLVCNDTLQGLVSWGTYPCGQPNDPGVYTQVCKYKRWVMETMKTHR
# EXPERIMENTAL DETAILS: Inhibition of enterokinase activated recombinant mouse C-terminal His6-tagged KLK7 (Gln22 to Arg249 residues) at 100 uM using MOCAc-Arg-Pro-Lys-Pro-Val-Glu-Nva-Trp-Arg-Lys(Dnp)-NH2 as substrate preincubated for 10 mins followed by substrate addition and measured after 30 mins by fluorescence analysis relative to control
MEASUREMENT NAME: inhibition (%)

As a guide, the following entries are already answered.
- COMPOUND: "CC1=NC(c2cn(S(=O)(=O)c3cccc(Cl)c3)c3ccccc23)CN1 (stereo not given)"
  SYSTEM NAME: "Kallikrein-7 (Mus musculus) (UniProt Q91VE3)"
  inhibition [%]: 77
- COMPOUND: "CC1=NC(c2cn(S(=O)(=O)c3ccc(Cl)cc3)c3ccc(C)cc23)CN1 (stereo not given)"
  SYSTEM NAME: "Kallikrein-7 (Mus musculus) (UniProt Q91VE3)"
  inhibition [%]: 33
- COMPOUND: "CC1=NC(c2cn(S(=O)(=O)c3ccc(Cl)cc3)c3ccccc23)CN1 (stereo not given)"
  SYSTEM NAME: "Kallikrein-7 (Mus musculus) (UniProt Q91VE3)"
  inhibition [%]: 17

[I] CC1=NC(c2cn(S(=O)(=O)c3ccc(C)cc3)c3ccccc23)CN1 (stereo not given)
[II] CC1=NC(c2cn(S(=O)(=O)c3ccc(Cl)cc3)c3ccc(Br)cc23)CN1 (stereo not given)
Ask: Could you tell me which of I and II has the lower inhibition reading? # reply format: chosen label
Result: I
(I: 14%, II: 35%)

###

# SYSTEM NAME: Kallikrein-7 (Mus musculus)
# Sequence (Q91VE3 whole entry): as above
# EXPERIMENTAL DETAILS: Inhibition of enterokinase activated recombinant mouse C-terminal His6-tagged KLK7 (Gln22 to Arg249 residues) using MOCAc-Arg-Pro-Lys-Pro-Val-Glu-Nva-Trp-Arg-Lys(Dnp)-NH2 as substrate preincubated for 10 mins followed by substrate addition and measured after 30 mins by fluorescence analysis
MEASUREMENT NAME: IC50 (µM)

Reference set, count: 7
- COMPOUND: "CC1=NC(c2cn(S(=O)(=O)c3c(Cl)cccc3Cl)c3ccc(C)cc23)CN1 (stereo unspecified)"
  IC50 [µM]: 10
- COMPOUND: "CC1=NC(c2cn(S(=O)(=O)c3ccccc3C)c3ccc(C)cc23)CN1 (stereo unspecified)"
  IC50 [µM]: 1.3
- COMPOUND: "CC1=NC(c2cn(S(=O)(=O)c3ccccc3F)c3ccc(C)cc23)CN1 (stereo unspecified)"
  IC50 [µM]: 6.4
- COMPOUND: "CC1=NC(c2cn(S(=O)(=O)c3cccs3)c3ccc(C)cc23)CN1 (stereo unspecified)"
  IC50 [µM]: 22
- COMPOUND: "CC1=NC(c2cn(S(=O)(=O)c3ccccc3)c3ccc(C)cc23)CN1 (stereo unspecified)"
  IC50 [µM]: 15
- COMPOUND: "CC1=NC(c2cn(S(=O)(=O)c3ccccc3Cl)c3ccc(C)cc23)CN1 (stereo unspecified)"
  IC50 [µM]: 1.5
- COMPOUND: "CC1=NC(c2cn(S(=O)(=O)c3cccc(Cl)c3)c3ccc(C)cc23)CN1 (stereo unspecified)"
  IC50 [µM]: 10

[P] CC1=NC(c2cn(S(=O)(=O)c3ccccc3Br)c3ccc(C)cc23)CN1 (stereo unspecified)
[Q] CC1=NC(c2cn(S(=O)(=O)c3ccccc3C#N)c3ccc(C)cc23)CN1 (stereo unspecified)
Ask: Could you tell me which of P and Q has the lower IC50 reading? Field: selected label. Fill in the label of the entry you choose.
Result: P
